target: CyclinE1/CDK2 (Homo sapiens, UniProt P24864); construct: purchased Eurofins, discovery 14-475; test: Fluorescence Polarization (FP) competitive binding assay, Cyclin E1/Cdk2; conditions: 10 nM Cyclin E1/Cdk2, 2 nM FAM probe; average of 2-3 independent experiments; read-out: Cyclin E FP IC50;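 further: readings taken after two-hour equilibration at room temperature in HEPES buffer with NaCl, DTT, NP-40 and BSA, IC50 fitted from eight-concentration serial dilution series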
pIC50: −log10 of the molar value. *1 amine or outer side, *2 acyl side, *3 side chain or, on linkers, in order; H or OH if unused. Where a SMILES comes first, the peptide text is derived from it. Bridges are numbered along the chain shown (N, C = ends). [ ]: non-standard residue; d: D form. The star is where a group is joined. X49 = CN1CCc2ccc(-c3ccc(Cl)cc3C[C@@H](C(=O)[*:2])N(C)[*:1])cc2C1; NMehhhLys(Me) = CN([C@@H](CCCCCCCN(C)[*:3])C(=O)[*:2])[*:1]; NMe(hhhLys) = CN([C@@H](CCCCCCCN[*:3])C(=O)[*:2])[*:1]; X210 = CC(C)=Cc1ccc(Cl)cc1C[C@@H](C(=O)[*:2])N(C)[*:1]; cBuCO(3,3-F2-1-CF3) = O=C(C1(C(F)(F)F)CC(F)(F)C1)*; Pro(trans-4-F) = O=C(O)[C@@H]1C[C@@H](F)CN1; Gly(cPr) = N[C@H](C(=O)O)C1CC1
Label yes (1) for high-side pIC50 (at or above 6) and no (0) for low-side pIC50 (below it).

INSERT INTO results (compound, group_label) VALUES
  ('CC(C)=Cc1ccc(Cl)cc1C[C@H]1C(=O)NCCCCCCC[C@H](N(C)C(=O)[C@@H](NC(=O)[C@@H]2C[C@@H](F)CN2C(=O)C2(C(F)(F)F)CC(F)(F)C2)C2CC2)C(=O)N[C@@H](CC(C)C)C(=O)N1C [Example 62] ({cBuCO(3,3-F2-1-CF3)}-[Pro(trans-4-F)][Gly(cPr)][NMe(hhhLys)]L[X210]; lactam 3-C)', 'yes (1)'),
  ('CC(C)C[C@@H]1NC(=O)[C@@H](N(C)C(=O)[C@@H](NC(=O)[C@@H]2C[C@@H](F)CN2C(=O)C2(C(F)(F)F)CC(F)(F)C2)C2CC2)CCCCCCCN(C)C(=O)[C@H](Cc2cc(Cl)ccc2-c2ccc3c(c2)CN(C)CC3)N(C)C1=O [Example 406] ({cBuCO(3,3-F2-1-CF3)}-[Pro(trans-4-F)][Gly(cPr)][NMehhhLys(Me)]L[X49]; lactam 3-C)', 'no (0)'),
  ('CC(C)C[C@@H]1NC(=O)[C@@H](N(C)C(=O)[C@@H](NC(=O)[C@@H]2C[C@@H](F)CN2C(=O)C2(C(F)(F)F)CC(F)(F)C2)C2CC2)C/C=C\CCCCN(C)C(=O)[C@H](Cc2cc(Cl)ccc2-c2cnn(C3CC3)c2)N(C)C1=O', 'yes (1)');

====

system: NCI-H1048 cells; assay: MTT proliferation assay, NCI-H1048; assay type: cell-based; details: 5 days compound exposure, 1:3 serial dilution starting at 10 μM;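 further: Dose-response in 96-well plates over 8 or 10 concentration points, with exposure spanning 3-4 cell doublings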
*1 amine or outer side, *2 acyl side, *3 side chain or, on linkers, in order; H or OH if unused. Where a SMILES comes first, the peptide text is derived from it. Bridges are numbered along the chain shown (N, C = ends). [ ]: non-standard residue; d: D form. The star is where a group is joined. X124 = CC(C)C(=O)N1[C@@H]2CC[C@H]1C=C(c1ccc(F)cc1C[C@@H](C(=O)[*:2])N(C)[*:1])C2; X114 = CN([C@@H](Cc1cc(Cl)ccc1-c1ccc(OCCN2CCOCC2)cc1)C(=O)[*:2])[*:1]; X58 = CC(C)C(=O)N1CC=C(c2ccc(Cl)cc2C[C@@H](C(=O)[*:2])N(C)[*:1])CC1; NMehhhLys(Me) = CN([C@@H](CCCCCCCN(C)[*:3])C(=O)[*:2])[*:1]; X176 = CN([C@@H](Cc1cc(F)ccc1-c1cccnc1)C(=O)[*:2])[*:1]; cBuCO(3,3-F2-1-CF3) = O=C(C1(C(F)(F)F)CC(F)(F)C1)*; Pro(trans-4-F) = O=C(O)[C@@H]1C[C@@H](F)CN1; Gly(cPr) = N[C@H](C(=O)O)C1CC1
The reader will find reported GI50 values listed item by item below.
ENDPOINT: GI50 (nM)

INSERT INTO results (compound, endpoint, quantitative_readout) VALUES
  ('CC(C)C[C@@H]1NC(=O)[C@@H](N(C)C(=O)[C@@H](NC(=O)[C@@H]2C[C@@H](F)CN2C(=O)C2(C(F)(F)F)CC(F)(F)C2)C2CC2)CCCCCCCN(C)C(=O)[C@H](Cc2cc(F)ccc2-c2cccnc2)N(C)C1=O [Example 271] ({cBuCO(3,3-F2-1-CF3)}-[Pro(trans-4-F)][Gly(cPr)][NMehhhLys(Me)]L[X176]; lactam 3-C)', 'GI50', 10),
  ('CC(C)C[C@@H]1NC(=O)[C@@H](N(C)C(=O)[C@@H](NC(=O)[C@@H]2C[C@@H](F)CN2C(=O)C2(C(F)(F)F)CC(F)(F)C2)C2CC2)CCCCCCCN(C)C(=O)[C@H](Cc2cc(Cl)ccc2C2=CCN(C(=O)C(C)C)CC2)N(C)C1=O [Example 143] ({cBuCO(3,3-F2-1-CF3)}-[Pro(trans-4-F)][Gly(cPr)][NMehhhLys(Me)]L[X58]; lactam 3-C)', 'GI50', 10),
  ('CC(C)C[C@@H]1NC(=O)[C@@H](N(C)C(=O)[C@@H](NC(=O)[C@@H]2C[C@@H](F)CN2C(=O)C2(C(F)(F)F)CC(F)(F)C2)C2CC2)CCCCCCCN(C)C(=O)[C@H](Cc2cc(F)ccc2C2=C[C@@H]3CC[C@H](C2)N3C(=O)C(C)C)N(C)C1=O [Example 317] ({cBuCO(3,3-F2-1-CF3)}-[Pro(trans-4-F)][Gly(cPr)][NMehhhLys(Me)]L[X124]; lactam 3-C)', 'GI50', 10),
  ('CC(C)C[C@@H]1NC(=O)[C@@H](N(C)C(=O)[C@@H](NC(=O)[C@@H]2C[C@@H](F)CN2C(=O)C2(C(F)(F)F)CC(F)(F)C2)C2CC2)CC=CCCCCN(C)C(=O)[C@H](Cc2cc(Cl)ccc2-c2cnn(C)c2)N(C)C1=O', 'GI50', 40),
  ('CC(C)C[C@@H]1NC(=O)[C@@H](N(C)C(=O)[C@@H](NC(=O)[C@@H]2C[C@@H](F)CN2C(=O)C2(C(F)(F)F)CC(F)(F)C2)C2CC2)CCCCCCCN(C)C(=O)[C@H](Cc2cc(Cl)ccc2-c2ccc(OCCN3CCOCC3)cc2)N(C)C1=O [Example 339] ({cBuCO(3,3-F2-1-CF3)}-[Pro(trans-4-F)][Gly(cPr)][NMehhhLys(Me)]L[X114]; lactam 3-C)', 'GI50', 10),
  ('CC[C@H](NC(=O)C1(C(F)(F)F)CC1)C(=O)N[C@@H](C)C(=O)N[C@H]1CC=CCCCCNC(=O)[C@H](Cc2cc(Cl)ccc2Cl)N(C)C(=O)[C@H](CC(C)C)NC1=O', 'GI50', 4000);

====

test system: OVCAR3 cells; assay: MTT proliferation assay, OVCAR3; assay type: cell-based; details: 5 days compound exposure, 1:3 serial dilution starting at 10 μM;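 further: compound given as an 8- or 10-point series, one day after plating, with exposure covering roughly 3-4 cell doublings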
*1 amine or outer side, *2 acyl side, *3 side chain or, on linkers, in order; H or OH if unused. Where a SMILES comes first, the peptide text is derived from it. Bridges are numbered along the chain shown (N, C = ends). [ ]: non-standard residue; d: D form. The star is where a group is joined. X141 = CN([C@@H](Cc1cc(Cl)ccc1C1=CCN(S(C)(=O)=O)C1)C(=O)[*:2])[*:1]; X190 = CC(=O)N1CC(Oc2ncc(Cl)cc2C[C@@H](C(=O)[*:2])N(C)[*:1])C1; NMehhhLys(Me) = CN([C@@H](CCCCCCCN(C)[*:3])C(=O)[*:2])[*:1]; cBuCO(3,3-F2-1-CF3) = O=C(C1(C(F)(F)F)CC(F)(F)C1)*; Pro(trans-4-F) = O=C(O)[C@@H]1C[C@@H](F)CN1; Gly(cPr) = N[C@H](C(=O)O)C1CC1
The reader will find reported GI50 values listed item by item below.
ENDPOINT: GI50 (nM)

INSERT INTO measurements (compound, target_system, endpoint, result_units, quantitative_readout) VALUES
  ('CC(=O)N1CC(Oc2ncc(Cl)cc2C[C@H]2C(=O)N(C)CCCCCCC[C@H](N(C)C(=O)[C@@H](NC(=O)[C@@H]3C[C@@H](F)CN3C(=O)C3(C(F)(F)F)CC(F)(F)C3)C3CC3)C(=O)N[C@@H](CC(C)C)C(=O)N2C)C1 [Example 324] ({cBuCO(3,3-F2-1-CF3)}-[Pro(trans-4-F)][Gly(cPr)][NMehhhLys(Me)]L[X190]; lactam 3-C)', 'OVCAR3 cells', 'GI50', 'nM', 80),
  ('CC(C)C[C@@H]1NC(=O)[C@@H](N(C)C(=O)[C@@H](NC(=O)[C@@H]2C[C@@H](F)CN2C(=O)C2(C(F)(F)F)CC(F)(F)C2)C2CC2)CCCCCCCN(C)C(=O)[C@H](Cc2cc(Cl)ccc2C2=CCN(S(C)(=O)=O)C2)N(C)C1=O [Example 309] ({cBuCO(3,3-F2-1-CF3)}-[Pro(trans-4-F)][Gly(cPr)][NMehhhLys(Me)]L[X141]; lactam 3-C)', 'OVCAR3 cells', 'GI50', 'nM', 10),
  ('CCOC(=O)N1CC=C(c2ccc(Cl)cc2C[C@H]2C(=O)NCCCCC=CC[C@H](N(C)C(=O)[C@@H](NC(=O)[C@@H]3C[C@@H](F)CN3C(=O)C3(C(F)(F)F)CC(F)(F)C3)C3CC3)C(=O)N[C@@H](CC(C)C)C(=O)N2C)CC1', 'OVCAR3 cells', 'GI50', 'nM', 180);
